Tested on: MDA-MB-231 breast
test_name: NCI tumour cell line growth inhibition, 48 h
quantity_measured: TGI

Below, each entry is followed by its recorded TGI result.
Report TGI, nothing else, for this molecule: `CC(=O)c1ccc(NC(=O)CSc2nnc(-c3cc(-c4ccc(C)cc4)nc4ccccc34)o2)cc1`
5.47 µM

Report TGI, nothing else, for this molecule: `Cc1ccc(S(=O)(=O)NN=C2CCCCCCCCCCC2)cc1`
> 100 µM

Report TGI, nothing else, for this molecule: `O=[N+]([O-])c1cccc2nc3ccccc3c(NCCc3cccc[n+]3[O-])c12`
0.0538 µM

Provide each entry's TGI from the list below.
1. COc1cc(CCCOC(=O)/C=C/c2ccc(O)c(O)c2)cc(O)c1O
2. CCCCCC(O)C1C(=O)OC(C)C(O)/C=C/C=C/C=C/C=C\C=C(\C)C(O)CC(O)CC(O)CC(O)CC(O)CC(O)CC1O (centres undefined)
3. COc1ccc(/C(Cl)=C(\C=O)c2ccc([N+](=O)[O-])cc2)cc1OC
4. COc1ccc(C2SCC(=O)N2c2ccc(-n3c(-c4ccccc4)nc4ccccc4c3=O)cc2)cc1OC (centres undefined)
5. CC(C)C1(C)N=C(C(F)(F)F)c2cc(C(=O)C(F)(F)F)c3ccccc3c2N1 (centres undefined)
6. O=C(CC(=O)N1N=C(N2CCCCC2)CC1c1ccccc1)Nc1ccc(Cl)cc1 (centres undefined)
7. Cn1nc(/C=C\C(=O)N2CC(CCl)c3c2cc(N)c2ccccc32)cc1/C=C/C(=O)N1CC(CCl)c2c1cc(N)c1ccccc21 (centres undefined)
8. COc1ccc(C(=O)c2ccc(OC)c(OC)c2OC)cc1

["91.7 µM", "> 100 µM", "83.9 µM", "> 100 µM", "11.2 µM", "> 100 µM", "< 0.01 µM", "> 100 µM"]

Provide each entry's TGI from the list below.
1. CCOc1ccc([C@@H]2[C@@H](Oc3ccccc3)C(=O)N2c2cc(OC)c(OC)c(OC)c2)cc1
2. Cc1ccc(C2NC(=S)NC3=C2CCOc2c3ccc3ccccc23)cc1 (centres undefined)
3. COC(=O)C(O)P(=O)(OC)OC (centres undefined)
4. S=C(N/N=C(/c1ccccc1)c1ccccn1)Nc1ccccc1Cl
5. ClC1=C(Cl)C(Cl)=C(Cl)C1=C/C=C/c1ccccc1
6. O=C1/C(=C\c2cccc(Oc3ccccc3)c2)S(=O)(=O)C(c2ccccc2)N1c1ccc(Cl)cc1 (centres undefined)
7. O=C(/C=C/c1ccc(Cl)cc1)Oc1ccc(/C=C2\CCCCC2=O)cc1
8. COc1cc(-c2oc3c(OC)c(O)c(OC)c(O)c3c(=O)c2OC)cc(O)c1OC

["> 100 µM", "> 100 µM", "> 100 µM", "2.19 µM", "> 100 µM", "34.7 µM", "> 100 µM", "> 100 µM"]

* * *

System: NCI/ADR-RES ovarian
test_name: NCI tumour cell line growth inhibition, 48 h
quantity_measured: TGI

Below, each entry is followed by its recorded TGI result.
Report TGI, nothing else, for this molecule: `Clc1ccc(Oc2ccc(N=Cc3ccc(Cl)cc3Cl)cc2Cl)cc1`
84.9 µM

Report TGI, nothing else, for this molecule: CCOC(=O)CCC(NC(=O)c1ccc(Oc2nc3ccc(C(F)(F)F)cc3nc2-c2ccccc2)cc1)C(=O)OCC (stereo unspecified)
> 100 µM

Report TGI, nothing else, for this molecule: CC(N)C(C)Cc1ccccc1 (stereo unspecified)
> 100 µM

Report TGI, nothing else, for this molecule: COc1nc(SC)nc2c1cnn2C1OC(C(O)CO)C(OC)C1O (stereo unspecified)
> 100 µM

Report TGI, nothing else, for this molecule: CC1(C23CC4CC(CC(C4)C2)C3)n2c(=O)n(-c3ccccc3)c(=O)n2C1(C)C12CC3CC(CC(C3)C1)C2 (stereo unspecified)
> 100 µM

Report TGI, nothing else, for this molecule: `COc1ccc(N=C(C)c2ccncc2)cc1`
> 100 µM

Provide each entry's TGI from the list below.
1. O=C/C(=C(/Br)I)c1ccccc1
2. COc1ccc(N2C(=O)C3ON(C(C(N)=O)c4ccccc4)C(c4ccc(-c5ccccc5)cc4)C3C2=O)cc1 (stereo unspecified)
3. CC1(C)C(=O)C(C)(C)C12SSC1(S2)C(C)(C)C(=O)C1(C)C
4. CC(=O)c1ccc(NC(=O)CSc2nnc(-c3cc(-c4ccc(C)cc4)nc4ccccc34)o2)cc1
5. O=C(CC(=O)N1N=C(N2CCCCC2)CC1c1ccccc1)Nc1ccc(Cl)cc1 (stereo unspecified)
6. CN1C2CC(=O)CC1[C@H](O)[C@@H]2O
7. CCNC1(c2cccc(C)c2)OC(C)(C)c2cccc3cccc1c23 (stereo unspecified)
8. COc1cccc(C2C(C#N)=C(N)Oc3cc(N)ccc32)c1 (stereo unspecified)

1. 15.2 µM
2. > 50 µM
3. > 100 µM
4. > 100 µM
5. > 100 µM
6. > 100 µM
7. 42.6 µM
8. 4.38 µM

* * *

OVCAR-5 ovarian: reported GI50 for various compounds.

Provide each entry's GI50 from the list below.
1. N#Cc1c(-c2ccc(Cl)cc2)n(O)c2ccccc12
2. Cc1nc2sccn2c(=O)c1CCN1CCC(=C(c2ccc(F)cc2)c2ccc(F)cc2)CC1
3. NCCCNc1nc2ccccc2c2c(=O)c3cc(C(F)(F)F)ccc3sc12
4. CC(=O)c1ccc(NC(=O)CSc2nnc(-c3cc(-c4ccc(C)cc4)nc4ccccc34)o2)cc1
5. O=[N+]([O-])c1ccc(-c2nc(-c3ccccc3)c(-c3ccccc3)n2-c2ccccc2)cc1

1: 4.08 µM; 2: 15.2 µM; 3: 1.73 µM; 4: 6.01 µM; 5: 4.7 µM

Provide each entry's GI50 from the list below.
1. CS(=O)CCCCCN=C=S (configuration not stated)
2. CCOc1ccc([C@@H]2[C@@H](Oc3ccccc3)C(=O)N2c2cc(OC)c(OC)c(OC)c2)cc1
3. CCCCCCCC/C=C/CCCCCCCCC1=NCCN1CCO
4. CCCCCC(O)C1C(=O)OC(C)C(O)/C=C/C=C/C=C/C=C\C=C(\C)C(O)CC(O)CC(O)CC(O)CC(O)CC(O)CC1O (configuration not stated)
5. COc1cc(NCCCCN=C(N)NC(N)=NC(C)C)c2ncccc2c1

["10.6 µM", "0.47 µM", "10.8 µM", "> 100 µM", "17.3 µM"]

Provide each entry's GI50 from the list below.
1. CC(=O)Nc1ccc(Sc2ccc([N+](=O)[O-])o2)cc1
2. NC(CSC(c1ccccc1)(c1ccccc1)c1ccc(Cl)cc1)C(=O)O (configuration not stated)

1: 2.34 µM; 2: 0.774 µM

* * *

Tested on: SNB-19 CNS
test_name: NCI tumour cell line growth inhibition, 48 h
quantity_measured: TGI

Report TGI, nothing else, for this compound: Cn1c2c(c3ccccc31)C1CCCCC1C1C(=O)NC(=O)C21 (centres undefined)
> 100 µM

Report TGI, nothing else, for this compound: COC(=O)C(O)P(=O)(OC)OC (centres undefined)
> 100 µM

Report TGI, nothing else, for this compound: COc1ccc(-c2csc(=Nc3ccccc3)n2CC(O)c2ccc([N+](=O)[O-])cc2)cc1 (centres undefined)
> 100 µM

Report TGI, nothing else, for this compound: `CC(=O)Oc1cc(OC(C)=O)c2c(=O)c3ccccc3[nH]c2c1`
> 100 µM

Report TGI, nothing else, for this compound: `O=C(NNC(=S)Nc1ccccc1)c1ccccc1Nc1ccccc1C(=O)NNC(=S)Nc1ccccc1`
72.4 µM

Provide each entry's TGI from the list below.
1. Cc1cn(C2CCC(/C=N\O)O2)c(=O)[nH]c1=O (centres undefined)
2. CCN(CC)CCCNc1cccc2c(SCc3ccccc3)ccnc12
3. CC(C)(C)N(Cc1ccc2c(c1)OCO2)C(=O)/C=C\S(=O)c1ccccc1 (centres undefined)
4. COc1ccc(NC(=O)n2nc(N)c3ccccc32)cc1OC

1: > 100 µM; 2: 3.89 µM; 3: 20.7 µM; 4: > 100 µM

* * *

System: SK-OV-3 ovarian
test_name: NCI tumour cell line growth inhibition, 48 h; in the data active means GI50 below about 0.43 µM; inactive means the rest
Field 'call' accepts 1 (active), -1 (inactive)

See these solved cases before continuing.
Please share the test call associated with `COc1cc(NCCCCN=C(N)NC(N)=NC(C)C)c2ncccc2c1` .
-1

Please share the test call associated with `OCCCN=NNc1ccc(-c2nc3ccccc3[nH]2)cc1` .
-1

Please share the test call associated with COc1cccc(C2C(C#N)=C(N)Oc3cc(N)ccc32)c1 (stereo not given) .
1

Please share the test call associated with `C=C(C)[C@@H]1CC[C@]2(C)[C@H](C(=O)C=C3[C@@H]4C[C@](C)(C(=O)N5CCN(C)CC5)CC[C@]4(C)CC[C@]32C)[C@@]1(C)CCC#N` .
-1

Please share the test call associated with `CCOC(=O)c1sc2nc3sc(N=Nc4ccc(Cl)cc4)c(O)n3c(=S)c2c1C` .
-1

Please share the test call associated with `CN1CCCNc2c(c(=O)c2=O)NCCCN(C)CCCNc2c(c(=O)c2=O)NCCCN(C)CCCNc2c(c(=O)c2=O)NCCCN(C)CCCNc2c(c(=O)c2=O)NCCCN(C)CCCNc2c(c(=O)c2=O)NCCCN(C)CCCNc2c(c(=O)c2=O)NCCCN(C)CCCNc2c(c(=O)c2=O)NCCC1` .
-1

Please share the test call associated with `CC(=O)N1CC(Nc2ccc(OC(F)(F)F)cc2)=CC1=O` .
-1

Please share the test call associated with `CC(=O)c1ccc(NC(=O)CSc2nnc(-c3cc(-c4ccc(C)cc4)nc4ccccc34)o2)cc1` .
-1

Continuing:
Please share the test call associated with `CN(C)c1ccc(N=Cc2c([O-])ccc3ccccc23)cc1.[C-]#[O+].[C-]#[O+].[Ir]` .
-1

Please share the test call associated with `COc1ccccc1-n1c(-c2cc(O)ccc2C)cn2c3c(=O)[nH]c(=O)n(C)c3nc12` .
-1
